# System: EstPS1
# Construct: full-length ORF with signal peptide (24 residues) and autotransporter domain (357-640); N-terminal His-tag, pET-28a, E. coli BL21(DE3), Ni-NTA; 640 residues, 68 kDa
# experiment summary: pesticide hydrolysis, gas chromatography, Lineweaver-Burk
# Assay type: biochemical, Pseudomonas synxantha
# test parameters: 50 mM Tris-HCl pH 8.0, 40 °C (degradation assay); stated substrate range 10 to 500 μM
Parameter Km: see the listing below.
// note: answer is a bare numeric in µM

Example cases with answers are listed next.
compound | Km, µM
CC1(C)C(C=C(Cl)Cl)C1C(=O)OC(C#N)c1cccc(Oc2ccccc2)c1 (stereo not drawn) [cis-Cypermethrin] | 0.62
CC(C)C(C(=O)OC(C#N)c1cccc(Oc2ccccc2)c1)c1ccc(Cl)cc1 (stereo not drawn) [Fenvalerate] | 0.84
Cc1c(COC(=O)[C@@H]2[C@H](/C=C(\Cl)C(F)(F)F)C2(C)C)cccc1-c1ccccc1 (racemic) [Bifenthrin] | 1.25

Look at this compound and give its reported Km. CNC(=O)Oc1cccc2ccccc12 [Carbaryl]
0.21

Param item = CC1(C)C(C(=O)OC(C#N)c2cccc(Oc3ccccc3)c2)C1(C)C (stereo not drawn) [Fenpropathrin] ; retrieve measured Km.
0.25

Recorded Km of CC1(C)C(C=C(Cl)Cl)C1C(=O)OC(C#N)c1cccc(Oc2ccccc2)c1 (stereo not drawn) [trans-Cypermethrin] , please.
0.53

###

# Tested on: EstPS1
# Construct: full-length ORF with signal peptide (24 residues) and autotransporter domain (357-640); N-terminal His-tag, pET-28a, E. coli BL21(DE3), Ni-NTA; 640 residues, 68 kDa
# experiment summary: p-nitrophenol release at […] nm, Lineweaver-Burk
# Type: biochemical, Pseudomonas synxantha
# test parameters: 50 mM Tris-HCl pH 8.0, 60 °C
Quick reference for Km among some compounds
Dear colleague, please return just the value in µM, with no unit written.

compound | system name | property | readout unit | data value
CCCC(=O)Oc1ccc([N+](=O)[O-])cc1 [p-Nitrophenyl butyrate] | EstPS1 | Km | µM | 43
CCCCCCCC(=O)Oc1ccc([N+](=O)[O-])cc1 [p-Nitrophenyl caprylate] | EstPS1 | Km | µM | 61
CCCCCC(=O)Oc1ccc([N+](=O)[O-])cc1 [p-Nitrophenyl caproate] | EstPS1 | Km | µM | 76

# input compound: CCCCCCCCCCCC(=O)Oc1ccc([N+](=O)[O-])cc1 [p-Nitrophenyl laurate] ; wanted: its Km
391

Could you tell me which Km is on file for CC(=O)Oc1ccc([N+](=O)[O-])cc1 [p-Nitrophenyl acetate] ?
102

Recorded Km for CCCCCCCCCC(=O)Oc1ccc([N+](=O)[O-])cc1 [p-Nitrophenyl decanoate] , please?
362
